- Tested on: SARS2-S pseudovirus
- method-description: microbe, parasite or virus in culture
- Format: cell-based, SARS-CoV-2
- experimental-setup: Pseudovirus, A549-ACE2, read-out: EC50, inhibition of SARS2-S pseudovirus entry
property: EC50 (µM)

mol-smiles	data-value
O=C(c1ccc(F)cc1)c1c[nH]c2ncc(-c3ccc(N4CCNCC4)nc3)cc12	0.45
